# maps each entry to its Sinf
ASSAYED TARGET: ERα (Homo sapiens, UniProt P03372)
Construct: ERα degradation percent activity in MCF7 neo/HER2 cells
Sequence (P03372 1-595): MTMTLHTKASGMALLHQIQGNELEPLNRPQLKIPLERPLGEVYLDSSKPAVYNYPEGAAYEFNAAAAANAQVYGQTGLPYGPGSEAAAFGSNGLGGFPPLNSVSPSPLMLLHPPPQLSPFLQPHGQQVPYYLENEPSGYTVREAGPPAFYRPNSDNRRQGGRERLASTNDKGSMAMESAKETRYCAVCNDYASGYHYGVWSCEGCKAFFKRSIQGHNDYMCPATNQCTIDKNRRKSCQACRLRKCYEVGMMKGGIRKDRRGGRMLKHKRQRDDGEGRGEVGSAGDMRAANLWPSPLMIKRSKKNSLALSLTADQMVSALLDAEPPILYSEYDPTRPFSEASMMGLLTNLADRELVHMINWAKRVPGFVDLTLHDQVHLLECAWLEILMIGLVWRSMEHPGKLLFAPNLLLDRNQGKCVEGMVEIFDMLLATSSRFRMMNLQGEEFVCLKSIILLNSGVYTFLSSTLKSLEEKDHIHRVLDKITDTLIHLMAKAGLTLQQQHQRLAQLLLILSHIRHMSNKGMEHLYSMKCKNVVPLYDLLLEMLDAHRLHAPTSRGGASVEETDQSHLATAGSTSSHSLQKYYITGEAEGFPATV
ASSAY INFO: Degradation of ERα by Ab-CIDEs (Example 3, FIGS. 1-3, Tables 2-4)
Format: cell-based
CONDITION PARAMETERS: ERα degradation by Ab-CIDE

{"columns": ["COMPOUND", "ASSAYED TARGET", "MEASUREMENT UNIT", "Sinf"],
 "data": [
  ["CC/C(=C(/c1ccc(OCCN(C)C(=O)CCOCCOCCC(=O)N[C@H](C(=O)N2C[C@H](OC(=O)OCC(C)(C)SS(C)(=O)=O)C[C@H]2C(=O)NCc2ccc(-c3scnc3C)cc2)C(C)(C)C)cc1)c1ccc(OP(=O)(O)O)cc1)c1ccccc1 [Thio Hu Anti- CD22 10F4v3 high DAR [LC:K149C HC:L174C HC:Y37]", "ERα (Homo sapiens, UniProt P03372)", "%", "−92"],
  ["CC/C(=C(\\c1ccc(O)cc1)c1ccc(OCCN(C)C(=O)CCOCCOCCC(=O)N[C@H](C(=O)N2C[C@H](OC(=O)OCC(C)(C)SS(C)(=O)=O)C[C@H]2C(=O)NCc2ccc(-c3scnc3C)cc2)C(C)(C)C)cc1)c1ccccc1 [Thio Hu Anti- Her2 7C2 high DAR [LC:K149C HC:L174C HC:Y373C]]", "ERα (Homo sapiens, UniProt P03372)", "%", "−93"],
  ["CC/C(=C(\\c1ccc(O)cc1)c1ccc(OCCN(C)C(=O)CCOCCOCCC(=O)N[C@H](C(=O)N2C[C@H](OC(=O)OCC(C)(C)SS(C)(=O)=O)C[C@H]2C(=O)NCc2ccc(-c3scnc3C)cc2)C(C)(C)C)cc1)c1ccccc1 [Thio Hu Anti- CD22 10F4v3 high DAR [LC:K149C HC:L174C Y373C]]", "ERα (Homo sapiens, UniProt P03372)", "%", "−92"],
  ["CC/C(=C(/c1ccc(OCCN(C)C(=O)CCOCCOCCC(=O)N[C@H](C(=O)N2C[C@H](OC(=O)OCC(C)(C)SS(C)(=O)=O)C[C@H]2C(=O)NCc2ccc(-c3scnc3C)cc2)C(C)(C)C)cc1)c1ccc(OP(=O)(O)O)cc1)c1ccccc1 [Thio Hu Anti- Her2 7C2 high DAR [LC:K149C HC:L174C HC:Y373C]]", "ERα (Homo sapiens, UniProt P03372)", "%", "−94"]
]}
